Molecular target: human HER3 endogenously expressed on human cancer cells (SK-Br-3, BT-474, MCF7) (human, UniProt P21860 20-1342)
Assay: cell-based or functional assay
Measured Endpoint: MCF7 proliferation % inhibition (%)
Form entry: value (%) — number only.

Query string: Requested read-out: MCF7 proliferation % inhibition. Entry: MOR12516 (antibody, human IgG1, lambda, V domains shown, Tested as IgG) VH: QVQLVQSGAEVKKPGASVKVSCKASGYTFTSYDIHWVRQAPGQGLEWMGRIDPYSGNTNYAQKFQGRVTMTRDTSISTAYMELSRLRSEDTAVYYCARGSFYTRDSYFDVWGQGTLVTVSS VL: DIALTQPASVSGSPGQSITISCTGTSSDVGTYNQVSWYQQHPGKAPKLMIYGVSKRPSGVSNRFSGSKSGNTASLTISGLQAEDEADYYCQSRDTYRPVKVFGGGTKLTVLG
Result string: 34

Query string: Let us now turn to MOR12515 (antibody, human IgG1, lambda, V domains shown, Tested as IgG) VH: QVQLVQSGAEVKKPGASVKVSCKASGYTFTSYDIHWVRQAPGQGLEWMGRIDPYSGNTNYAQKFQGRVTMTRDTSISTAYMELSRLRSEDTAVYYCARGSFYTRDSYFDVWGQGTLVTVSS VL: DIALTQPASVSGSPGQSITISCTGTSSDVGTYNQVSWYQQHPGKAPKLMIYGVSKRPSGVSNRFSGSKSGNTASLTISGLQAEDEADYYCYSRDSPMDQVFGGGTKLTVLG
Result string: 26

Query string: Let us now turn to MOR12605 (antibody, human IgG1, kappa, V domains shown, Tested as IgG) VH: QVQLVQSGAEVKKPGSSVKVSCKASGGTFSSYAISWVRQAPGQGLEWMGLIIPRYGKARYAQKFQGRVTITADESTSTAYMELSSLRSEDTAVYYCARNWPYYYMDFWGQGTLVTVSS VL: DIVLTQSPATLSLSPGERATLSCRASQNIVFNLAWYQQKPGQAPRLLIYDASNRATGVPARFSGSGSGTDFTLTISSLEPEDFAVYYCQQFRRKSNTFGQGTKVEIKR
Result string: 45
